- Test system: K4 kissing-loop RNA reporter;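 also: bound reporter read as fluorescence of individual clusters on recovered sequencing chips by microscopy, with normalized cluster intensities fitted with a binding model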
- assayComment: apparent KD of K4 kissing-loop reporter; higher = weaker reporter binding
- measurementContext: Eterna round: R107; input ligand: FMN 200 uM
Listing of recorded apparent KD of K4 kissing-loop reporter by entry.
quantity: apparent KD of K4 kissing-loop reporter

AGGCGGCAAGAUUGAUUGGAAAGUAAUCGACGAGGACCGGUACGGCCGCCACUCGAACACCAGUGAUGUUGGUCUGGCUUAAGCC [Exclusion Tryptophan A GF 20]; 430 nM
UAGUGAAUAGAAGGAUAUUGAUAUGAAAGAUGCAGUGAUGUUGCCCGUAGCAGUCAGUAAUACGUGCAAGAAGGUCUGUGCGCGA [theeternabot_exclusion_KL_FMN_B_3]; 65.2 nM
GAUUUAGAGGCGGCCGCCACUAGUGAUGUUAGUGAUGUUUGAUACUGAAUAUAUCGGCGUGUAGAUAGGACCGGGCCAGAUGGAG [zwqqmullin]; 221 nM
GUAUCGCUAGGAGGAUAUUUCAAUCCGCCUAUAAUAGGUGGUACGGAGUGAUGUUCCGAUUUACGGAAAGAAGGCCUAGUGAUAC [FMN B 16]; 142 nM
CGGCUCACGCAAGGAUAUCGCAGUGAGUACUCUGGAAGAAUAAAGCUAGUGAUGUUAGGUUAGAAGCGAGAAGGUGCGGCCGUAU [theeternabot_sameState_KL_FMN_B_30]; 126 nM
GGAGGGAUCUCGGCCGCCACUCAUAAGAAAUGAACCUCAGAAAUAUAGUGAUGUUAUAUAAAGAAGAGGACCGGGAGAAAGGAGG [ExTryptoB.B]; 167 nM

Where do the numbers come from? From the supplement of paper PMC9170038.
